Data origin, for the record: the supplement of paper PMC10307832

System: NCI-H647
test description: relative viability (nuclei count vs DMSO), 5 days (fraction); higher = more cells survive
measurement parameters: first compound 2.53 µM
Give measured relative viability for each item. Keep answers brief.
Number, no unit, nothing else.

Please report relative viability for the following molecule: O=c1[nH]c2ccccc2n1C1CCN(CCCC(c2ccc(F)cc2)c2ccc(F)cc2)CC1 [Pimozide] + COc1cc2c(Oc3ccc(NC(=O)C4(C(=O)Nc5ccc(F)cc5)CC4)cc3F)ccnc2cc1OCCCN1CCOCC1 [Foretinib] (partner 0.25 µM)
1.22

Please report relative viability for the following molecule: Cc1cnc(-c2cnc(NCCNc3ccc(C#N)cn3)nc2-c2ccc(Cl)cc2Cl)[nH]1 + Nc1ncn([C@H]2C[C@H](O)[C@@H](CO)O2)c(=O)n1 [Decitabine] (partner 2 µM)
0.297

Please report relative viability for the following molecule: O=c1[nH]c2ccccc2n1C1CCN(CCCC(c2ccc(F)cc2)c2ccc(F)cc2)CC1 [Pimozide] + C[C@]1(O)C[C@@H](c2nc(-c3ccc4ccc(-c5ccccc5)nc4c3)c3c(N)nccn32)C1 [Linsitinib] (partner 1 µM)
1.17

Please report relative viability for the following molecule: Cc1cnc(-c2cnc(NCCNc3ccc(C#N)cn3)nc2-c2ccc(Cl)cc2Cl)[nH]1 + Cc1cc(Nc2cc(N3CCN(C)CC3)nc(Sc3ccc(NC(=O)C4CC4)cc3)n2)n[nH]1 [Tozasertib] (partner 0.1 µM)
0.172

Please report relative viability for the following molecule: O=c1[nH]c2ccccc2n1C1CCN(CCCC(c2ccc(F)cc2)c2ccc(F)cc2)CC1 [Pimozide] + Nc1nc2[nH]cc(CCc3ccc(C(=O)N[C@@H](CCC(=O)O)C(=O)O)cc3)c2c(=O)[nH]1 [Pemetrexed] (partner 0.2 µM)
0.2

Please report relative viability for the following molecule: O=c1[nH]c2ccccc2n1C1CCN(CCCC(c2ccc(F)cc2)c2ccc(F)cc2)CC1 [Pimozide] + Nc1ncn([C@H]2C[C@H](O)[C@@H](CO)O2)c(=O)n1 [Decitabine] (partner 2 µM)
0.442

Please report relative viability for the following molecule: Cc1cnc(-c2cnc(NCCNc3ccc(C#N)cn3)nc2-c2ccc(Cl)cc2Cl)[nH]1 + Nc1nc2[nH]cc(CCc3ccc(C(=O)N[C@@H](CCC(=O)O)C(=O)O)cc3)c2c(=O)[nH]1 [Pemetrexed] (partner 0.2 µM)
0.114

Please report relative viability for the following molecule: Cc1cnc(-c2cnc(NCCNc3ccc(C#N)cn3)nc2-c2ccc(Cl)cc2Cl)[nH]1 + O=C(c1cc(Cc2n[nH]c(=O)c3ccccc23)ccc1F)N1CCN(C(=O)C2CC2)CC1 [Olaparib] (partner 8 µM)
0.429

Please report relative viability for the following molecule: O=c1[nH]c2ccccc2n1C1CCN(CCCC(c2ccc(F)cc2)c2ccc(F)cc2)CC1 [Pimozide] + Cc1cc(Nc2cc(N3CCN(C)CC3)nc(Sc3ccc(NC(=O)C4CC4)cc3)n2)n[nH]1 [Tozasertib] (partner 0.1 µM)
0.221

Please report relative viability for the following molecule: O=c1[nH]c2ccccc2n1C1CCN(CCCC(c2ccc(F)cc2)c2ccc(F)cc2)CC1 [Pimozide] + CC(C)C[C@H](NC(=O)[C@H](Cc1ccccc1)NC(=O)c1cnccn1)B(O)O [Bortezomib] (partner 0.002 µM)
0.944

Please report relative viability for the following molecule: O=c1[nH]c2ccccc2n1C1CCN(CCCC(c2ccc(F)cc2)c2ccc(F)cc2)CC1 [Pimozide] + O=C(CCCCCCC(=O)Nc1ccccc1)NO [Vorinostat] (partner 1 µM)
0.268
